# cell viability annotations
# Tested on: Vero E6
# assay.overview: cell viability relative to DMSO; higher = less toxic
# experimental.conditions: 72 h; 1 nM

substance.smiles | cell viability (%)
O=C1COc2nccc(-c3ccccc3F)c2CN1Cc1cc(C(F)(F)F)cc(C(F)(F)F)c1 | 101
CCCCC(=O)N(Cc1ccc(-c2ccccc2-c2nnn[nH]2)cc1)[C@H](C(=O)O)C(C)C | 101
C[C@@H]1O[C@@H](OC[C@H]2O[C@@H](Oc3c(-c4ccc(O)c(O)c4)oc4cc(O)cc(O)c4c3=O)[C@H](O)[C@@H](O)[C@@H]2O)[C@H](O)[C@H](O)[C@H]1O | 98.6
O=c1[nH]c2ccc(Cl)cc2c(N[C@@H]2CN3CCC2CC3)c1-c1nc2ccccc2[nH]1 | 105
Clc1ccc([C@]23CNC[C@H]2C3)cc1Cl | 101
COC(=O)c1c(-c2cc(OC)c(OC)c(OC)c2)c2ccnc(OCc3ncccn3)c2c(=O)n1Cc1ccnc(C)c1 | 96
C[C@@H]1COCCN1c1cc(C2(S(C)(=O)=O)CC2)nc(-c2cccc3[nH]ccc23)n1 | 102
Clc1ccc(N/N=C(\c2ccccc2)c2ccccn2)nc1 | 91.7
Fc1ccc(Cl)cc1-c1nc(Nc2ccncc2)c2nccnc2n1 | 102
COc1cccc2c1C(=O)c1c(O)c3c(c(O)c1C2=O)C[C@@](O)(C(=O)CO)C[C@@H]3O[C@H]1C[C@H](N2CCO[C@H](OC)C2)[C@H](O)[C@H](C)O1 | 72.6
CC[C@H](C)[C@@H]1NC(=O)[C@H](Cc2ccc(OC)cc2)NC(=O)CCCSC[C@@H](C(=O)N2CCC[C@H]2C(=O)N[C@@H](CC(C)C)C(=O)NCC(N)=O)NC(=O)[C@H](CC(N)=O)NC(=O)[C@H](CCC(N)=O)NC1=O | 104
Clc1cccc(/C=N/N=C/c2cccc(Cl)c2)c1 | 99.6
CCc1cc2c(c(CC)n1)CCC(=O)N2Cc1ccc(-c2ccccc2-c2nnn[nH]2)cc1 | 92.5
COC(=O)N1CCN(Cc2cccc(NC(=O)Nc3ccc(C)nc3)c2F)CC1 | 105
Cc1c(-c2ccc(O)cc2)n(Cc2ccc(OCCN3CCCCCC3)cc2)c2ccc(O)cc12 | 102
